For each entry below, report its Ki value.
biological target: human ETA receptor (Homo sapiens); construct: expressed in transfected cells; host or cells: CHO cells; test: Receptor binding assay, ETA ([125I]-ET1, membranes of ETA receptor-expressing CHO cells); details: cloned human ETA receptor-expressing CHO cell membranes; 25 pM [125I]-ET1; 30 min; read-out: Receptor binding data (Ki values) ETA
Sequence (P25101 21-427): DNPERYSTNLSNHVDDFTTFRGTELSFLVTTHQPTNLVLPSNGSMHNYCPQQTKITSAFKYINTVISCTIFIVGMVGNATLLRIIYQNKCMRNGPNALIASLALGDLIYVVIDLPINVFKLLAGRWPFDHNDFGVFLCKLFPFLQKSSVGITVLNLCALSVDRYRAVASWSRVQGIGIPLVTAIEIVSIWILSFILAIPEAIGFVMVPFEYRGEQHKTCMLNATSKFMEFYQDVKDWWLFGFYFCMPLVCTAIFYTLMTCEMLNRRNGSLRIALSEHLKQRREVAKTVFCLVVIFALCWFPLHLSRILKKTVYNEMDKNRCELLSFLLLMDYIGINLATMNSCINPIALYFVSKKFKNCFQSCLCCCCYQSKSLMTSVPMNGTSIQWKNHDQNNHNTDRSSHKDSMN
The figure you give is taken to be in µM; do not add the unit.

Find the measured Ki of COC(c1ccccc1)(c1ccccc1)C(Oc1ccc2ccccc2n1)C(=O)O (stereo not drawn) and report it.
3

Read the entry COC(c1ccccc1)(c1ccccc1)C(Oc1cc(C(F)(F)F)nc(C(C)(C)C)n1)C(=O)O (stereo not drawn) and write its reported Ki.
3.3

Provide only the value of recorded Ki for COC(c1ccccc1)(c1ccccc1)C(Oc1cc(C)c2ccccc2n1)C(=O)O (stereo not drawn)
0.5

---

Molecular target: ETB receptor (Cavia porcellus)
Construct: Guinea pig cerebella were homogenized in a Potter-Elvejhem homogenizer; from tissue; host or cells: guinea pig cerebellum (membranes)
Sequence (H0VTF3 27-415): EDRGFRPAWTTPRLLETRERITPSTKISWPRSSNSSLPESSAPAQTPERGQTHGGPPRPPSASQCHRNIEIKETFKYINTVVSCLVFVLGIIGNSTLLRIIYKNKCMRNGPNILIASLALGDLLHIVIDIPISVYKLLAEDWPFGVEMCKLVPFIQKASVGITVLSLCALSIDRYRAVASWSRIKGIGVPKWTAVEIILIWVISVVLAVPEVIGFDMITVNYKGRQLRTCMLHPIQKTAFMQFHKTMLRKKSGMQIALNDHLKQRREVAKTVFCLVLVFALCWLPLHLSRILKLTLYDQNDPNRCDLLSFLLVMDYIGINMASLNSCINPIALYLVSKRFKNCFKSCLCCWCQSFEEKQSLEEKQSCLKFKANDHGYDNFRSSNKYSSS
Experiment: Receptor binding assay, ETB ([125I]-RZ3, guinea pig cerebellar membranes)
Description: Cloned human ETA receptor-expressing CHO cells and guinea pig cerebellar membranes with >60% ETB compared with ETA receptors were used for binding studies. […] The nonspecific binding was determined with 10^-7 M ET1. […] The radioactivity collected on the filters was quantified using a Packard 2200 CA liquid scintillation counter.
quantity: pKi
Just so you know, pKi here is -log10 of the concentration in molar units; reply with that number alone.

Please give the documented pKi of COc1cc(OC(C(=O)O)C(OC)(c2ccccc2)c2ccccc2)nc(OC)n1 (stereo not shown)
5.10

---

For each of the compounds below, state its Ki.
Target: ETB receptor (Cavia porcellus, UniProt H0VTF3)
Construct: Guinea pig cerebella were homogenized in a Potter-Elvejhem homogenizer; from tissue; host or cells: guinea pig cerebellum (membranes)
Sequence (H0VTF3 27-415): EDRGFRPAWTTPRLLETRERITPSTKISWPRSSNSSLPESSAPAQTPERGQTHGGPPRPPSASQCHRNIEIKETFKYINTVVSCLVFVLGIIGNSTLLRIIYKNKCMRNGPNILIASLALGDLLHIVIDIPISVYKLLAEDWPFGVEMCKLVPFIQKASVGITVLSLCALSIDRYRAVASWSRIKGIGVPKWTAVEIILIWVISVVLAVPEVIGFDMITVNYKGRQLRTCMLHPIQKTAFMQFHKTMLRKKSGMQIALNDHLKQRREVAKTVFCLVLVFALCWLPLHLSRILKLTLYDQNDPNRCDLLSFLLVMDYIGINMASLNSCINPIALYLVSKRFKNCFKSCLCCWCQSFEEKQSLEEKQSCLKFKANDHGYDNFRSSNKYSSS
Test: Receptor binding assay, ETB ([125I]-RZ3, guinea pig cerebellar membranes)
Conditions: guinea pig cerebellar membranes (>60% ETB compared with ETA receptors); 25 pM [125I]-RZ3; 30 min; read-out: Receptor binding data (Ki values) ETB

Give the measured Ki for COC(c1ccccc1)(c1ccccc1)C(Oc1ccc2ccccc2n1)C(=O)O (stereo not drawn) [Compound I-167]
> 7 µM

Recall and state the measured Ki for COC(c1ccccc1)(c1ccccc1)C(Oc1cc(C)c2ccccc2n1)C(=O)O (stereo not drawn) [Compound I-166] .
4 µM

State its Ki for this compound: COC(c1ccccc1)(c1ccccc1)C(Oc1cc(C(F)(F)F)nc(C(C)(C)C)n1)C(=O)O (stereo not drawn) [Compound I-91]
> 10 µM

All values here come from patent US6103732A.
